B1: BBSome complex member BBS5 (Homo sapiens), Q8N3I7 (parent)
chain: MSVLDALWEDRDVRFDLSAQQMKTRPGEVLIDCLDSIEDTKGNNGDRGRLLVTNLRILWHSLALSRVNVSVGYNCILNITTRTANSKLRGQTEALYILTKCNSTRFEFIFTNLVPGSPRLFTSVMAVHRAYETSKMYRDFKLRSALIQNKQLRLLPQEHVYDKINGVWNLSSDQGNLGTFFITNVRIVWHANMNDSFNVSIPYLQIRSIKIRDSKFGLALVIESSQQSGGYVLGFKIDPVEKLQESVKEINSLHKVYSASPIFGVDYEMEEKPQPLEALTVEQIQDDVEIDSDGHTDAFVAYFADGNKQQDREPVFSEELGLAIEKLKDGFTLQGLWEVMS
partner: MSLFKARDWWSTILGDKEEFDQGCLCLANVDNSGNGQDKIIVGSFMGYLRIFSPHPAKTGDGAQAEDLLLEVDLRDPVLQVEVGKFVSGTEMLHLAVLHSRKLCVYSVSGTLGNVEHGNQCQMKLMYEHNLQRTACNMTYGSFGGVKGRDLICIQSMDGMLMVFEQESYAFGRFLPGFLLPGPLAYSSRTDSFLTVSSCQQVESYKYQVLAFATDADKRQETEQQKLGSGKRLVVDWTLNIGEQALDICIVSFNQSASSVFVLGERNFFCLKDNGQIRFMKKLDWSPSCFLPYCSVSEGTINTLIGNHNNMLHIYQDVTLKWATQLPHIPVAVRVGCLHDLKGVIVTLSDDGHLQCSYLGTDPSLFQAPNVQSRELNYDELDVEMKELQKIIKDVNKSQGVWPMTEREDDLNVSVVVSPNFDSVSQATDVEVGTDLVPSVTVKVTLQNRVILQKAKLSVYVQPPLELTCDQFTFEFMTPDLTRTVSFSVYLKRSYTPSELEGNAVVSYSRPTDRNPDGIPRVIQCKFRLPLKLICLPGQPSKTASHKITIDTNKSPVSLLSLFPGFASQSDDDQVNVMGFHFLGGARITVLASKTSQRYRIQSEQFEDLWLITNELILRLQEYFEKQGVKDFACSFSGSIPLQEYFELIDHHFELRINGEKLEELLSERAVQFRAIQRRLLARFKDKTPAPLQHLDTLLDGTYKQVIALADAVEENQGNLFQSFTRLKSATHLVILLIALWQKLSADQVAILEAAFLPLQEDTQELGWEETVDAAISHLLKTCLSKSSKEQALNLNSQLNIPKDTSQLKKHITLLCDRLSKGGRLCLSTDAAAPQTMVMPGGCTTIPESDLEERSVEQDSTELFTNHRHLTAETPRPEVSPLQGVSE

variants of: B1; details: with pthb1_human BBS9, Q3SYG4
reported-endpoint: effect of a mutation on the interaction

// below: answered variants
>  <mutant>
K210E

>  <reading>
with no effect

$$$$
>  <mutant>
T104E

>  <reading>
with no effect

$$$$
>  <mutant>
I31E

>  <reading>
with no effect

$$$$
>  <mutant>
Y203A

>  <reading>
with no effect

$$$$

The variant listed as Q274E has a reported effect of a mutation on the interaction of with no effect

The variant listed as Q148A has a reported effect of a mutation on the interaction of with no effect

The variant listed as F110K has a reported effect of a mutation on the interaction of with no effect

The variant listed as A191K has a reported effect of a mutation on the interaction of with no effect

The variant listed as V127A has a reported effect of a mutation on the interaction of with no effect

The variant listed as N112A has a reported effect of a mutation on the interaction of with no effect

The variant listed as L98A has a reported effect of a mutation on the interaction of with no effect

The variant listed as D139A has a reported effect of a mutation on the interaction of with no effect

The variant listed as L62A has a reported effect of a mutation on the interaction of with no effect

The variant listed as K41A has a reported effect of a mutation on the interaction of with no effect

The variant listed as Q334E has a reported effect of a mutation on the interaction of with no effect

The variant listed as V67K has a reported effect of a mutation on the interaction of with no effect

The variant listed as R82E has a reported effect of a mutation on the interaction of with no effect

The variant listed as Y203E has a reported effect of a mutation on the interaction of with no effect

The variant listed as S228E has a reported effect of a mutation on the interaction of with no effect

The variant listed as V67A has a reported effect of a mutation on the interaction of with no effect

The variant listed as V240A has a reported effect of a mutation on the interaction of with no effect

The variant listed as K236A has a reported effect of a mutation on the interaction of with no effect

The variant listed as N112E has a reported effect of a mutation on the interaction of with no effect

The variant listed as T296A has a reported effect of a mutation on the interaction of with no effect
